assay: Pharmacokinetics of THC aerosol by inhalation in Beagle dogs; format: in vivo; conditions: Beagle, dog, plasma (venous), inhaled or intranasal, 0.93 mg, inhalation 0.93 mg THC + 0.11 THCA, venous plasma THC, subject 104
readout.label: half-life (min)
Reply numerically in min, unit not repeated.

Item CCCCCc1cc(O)c2c(c1)OC(C)(C)[C@@H]1CCC(C)=C[C@@H]21 [THC, Δ^9-tetrahydrocannabinol] has what recorded half-life?
55.8

---

test: Pharmacokinetics of THC IV bolus in Beagle dogs; format: in vivo; conditions: male, dog, venous plasma, 0.9 mg, IV injection 0.9 mg THC, subject 101
readout.label: Cmax (ng/mL)
Give the number; ng/mL is assumed, so skip it.

Would you mind telling me what Cmax value was observed for CCCCCc1cc(O)c2c(c1)OC(C)(C)[C@@H]1CCC(C)=C[C@@H]21 [THC, Δ^9-tetrahydrocannabinol] ?
3770

---

assay: Pharmacokinetics of THC IV bolus in Beagle dogs; format: in vivo; conditions: male, dog, venous plasma, 0.9 mg, IV injection 0.9 mg THC, subject 101
readout.label: half-life (min)
Entry rule: numbers only, all in min.

Item under review: CCCCCc1cc(O)c2c(c1)OC(C)(C)[C@@H]1CCC(C)=C[C@@H]21 [THC, Δ^9-tetrahydrocannabinol] . Reported half-life?
18.1

---

assay: Pharmacokinetics of THC IV bolus in Beagle dogs; format: in vivo; conditions: female, dog, venous plasma, 0.9 mg, IV injection 0.9 mg THC, subject 103
readout.label: half-life (min)
Return type: number; implicit unit min.

May I ask what half-life has been recorded for CCCCCc1cc(O)c2c(c1)OC(C)(C)[C@@H]1CCC(C)=C[C@@H]21 [THC, Δ^9-tetrahydrocannabinol] ?
51.3

---

test: Pharmacokinetics of THC IV bolus in Beagle dogs; assay type: in vivo; details: male, dog, venous plasma, 0.9 mg, IV injection 0.9 mg THC, subject 102
readout.label: Tmax (s)
Write the value in s as a bare number.

What Tmax value was documented for this molecule, CCCCCc1cc(O)c2c(c1)OC(C)(C)[C@@H]1CCC(C)=C[C@@H]21 [THC, Δ^9-tetrahydrocannabinol] ?
30

---

assay: Pharmacokinetics of THC aerosol by inhalation in Beagle dogs; format: in vivo; conditions: Beagle, dog, plasma (venous), inhaled or intranasal, 0.93 mg, inhalation 0.93 mg THC + 0.11 THCA, venous plasma THC, subject 102
readout.label: half-life (min)
Value expressed in min; do not type the unit.

Query: half-life; subject: CCCCCc1cc(O)c2c(c1)OC(C)(C)[C@@H]1CCC(C)=C[C@@H]21 [THC, Δ^9-tetrahydrocannabinol]
32.5

---

test: Pharmacokinetics of THC aerosol by inhalation in Beagle dogs; type: in vivo; conditions: Beagle, dog, plasma (venous), inhaled or intranasal, 0.93 mg, inhalation 0.93 mg THC + 0.11 THCA, venous plasma THC, subject 103
readout.label: Cmax
Put down the number, then write its unit next to it.

Return reported Cmax; argument: CCCCCc1cc(O)c2c(c1)OC(C)(C)[C@@H]1CCC(C)=C[C@@H]21 [THC, Δ^9-tetrahydrocannabinol]
358 ng/mL

---

assay: Pharmacokinetics of THC aerosol by inhalation in Beagle dogs; type: in vivo; details: Beagle, dog, plasma (venous), inhaled or intranasal, 0.93 mg, inhalation 0.93 mg THC + 0.11 THCA, venous plasma THC, subject 102
readout.label: Cmax (ng/mL)
Respond with the bare value in ng/mL.

Name the recorded Cmax for CCCCCc1cc(O)c2c(c1)OC(C)(C)[C@@H]1CCC(C)=C[C@@H]21 [THC, Δ^9-tetrahydrocannabinol] .
190
